Test system: HOP-62 NSCLC
METHOD_SUMMARY: NCI tumour cell line growth inhibition, 48 h
ENDPOINT_NAME: TGI

// solved cases for TGI follow
[[record]]
compound = "OCc1cn(C(c2ccccc2)(c2ccccc2)c2ccccc2)cn1"
endpoint_name = "TGI"
value_observed = "> 100 µM"

[[record]]
compound = "Cc1nc(N)c(N2CCN(C(=O)O)CC2)c(=O)[nH]1"
endpoint_name = "TGI"
value_observed = "> 100 µM"

[[record]]
compound = "N#CC(C(=O)c1cccnc1Cl)c1nc2cc(C(F)(F)F)ccc2s1 (stereo not given)"
endpoint_name = "TGI"
value_observed = "> 100 µM"

[[record]]
compound = "CCN1C/C(=C\\c2cc(OC)c(OC)cc2OC)C(=O)/C(=C/c2cc(OC)c(OC)cc2OC)C1"
endpoint_name = "TGI"
value_observed = "10.4 µM"

[[record]]
compound = "Cc1cccc(N(C)C(=O)[C@@H]2[C@H](O)CCN2c2nc(C)cc(C(F)(F)F)c2C#N)c1"
endpoint_name = "TGI"
value_observed = "> 100 µM"

[[record]]
compound = "O=C1/C(=C\\Oc2ccc(F)cc2)N2CCC1CC2"
endpoint_name = "TGI"
value_observed = "> 100 µM"

[[record]]
compound = "COC(=O)c1n[nH]c(C)c1N=NN(C)CCC#N"
endpoint_name = "TGI"
value_observed = "37 µM"

[[record]]
compound = "O=[N+]([O-])c1cccc2nc3ccccc3c(NCCCn3ccnc3[N+](=O)[O-])c12"
endpoint_name = "TGI"
value_observed = "0.143 µM"


Q: Form field: reported TGI of `O=C(O)c1ccc(C(=O)c2ccccc2C(=O)O)cc1C(=O)O`
Result: > 100 µM

Q: Can you handle COc1ccc(C(=O)C2=NON3OC23C(=O)c2ccc(OC)cc2)cc1 (stereo not given) next?
Result: > 100 µM

Taken from PubChem BioAssay (NCI).
